test system: Penicillium digitatum; assay: Fungicidal activity against Penicillium digitatum assessed as fungal inhibitory rate at 16 ug/ml relative to control; format: functional
For each record, write down the corresponding inhibition at 16 µg/mL.
# value in %; strip the unit string

Data request: Can you look up inhibition at 16 µg/mL on Penicillium digitatum for COC(=O)C1=C(N)OC2=C(CN(C(=O)c3ccco3)C/C2=C\c2ccc(Cl)s2)C1c1ccc(Cl)s1 (stereo not drawn) ?
Data returned: 70

Data request: Also check Cc1ccc(/C=C2\CN(C)CC3=C2OC(N)=C(C#N)C3c2ccc(C)s2)s1 (stereo not drawn)
Data returned: 38.9

Data request: Also check N#CC1=C(N)OC2=C(CN(C(=O)c3cccs3)C/C2=C\c2ccc(Cl)s2)C1c1ccc(Cl)s1 (stereo not drawn)
Data returned: 44.8

Data request: Also check COC(=O)C1=C(N)OC2=C(CN(C)C/C2=C\c2cccs2)C1c1cccs1 (stereo not drawn)
Data returned: 34.2

Data request: Also check COC(=O)C1=C(N)OC2=C(CN(C(=O)c3ccco3)C/C2=C\c2ccc(Br)o2)C1c1ccc(Br)o1 (stereo not drawn)
Data returned: 76

Data request: Also check Cc1ccc(/C=C2\CN(C(=O)c3ccco3)CC3=C2OC(N)=C(C#N)C3c2ccc(C)o2)o1 (stereo not drawn)
Data returned: 39

Data request: Also check Fc1ccc([C@@]2(Cn3cncn3)O[C@@H]2c2ccccc2Cl)cc1
Data returned: 78.6

Data request: Also check COC(=O)C1=C(N)OC2=C(CN(C)C/C2=C\c2ccc(Cl)s2)C1c1ccc(Cl)s1 (stereo not drawn)
Data returned: 30
